- Experimental Target: EHMT2 (Homo sapiens)
- Construct: host or cells: MDA-MB-231
- Sequence (Q96KQ7 1-1210): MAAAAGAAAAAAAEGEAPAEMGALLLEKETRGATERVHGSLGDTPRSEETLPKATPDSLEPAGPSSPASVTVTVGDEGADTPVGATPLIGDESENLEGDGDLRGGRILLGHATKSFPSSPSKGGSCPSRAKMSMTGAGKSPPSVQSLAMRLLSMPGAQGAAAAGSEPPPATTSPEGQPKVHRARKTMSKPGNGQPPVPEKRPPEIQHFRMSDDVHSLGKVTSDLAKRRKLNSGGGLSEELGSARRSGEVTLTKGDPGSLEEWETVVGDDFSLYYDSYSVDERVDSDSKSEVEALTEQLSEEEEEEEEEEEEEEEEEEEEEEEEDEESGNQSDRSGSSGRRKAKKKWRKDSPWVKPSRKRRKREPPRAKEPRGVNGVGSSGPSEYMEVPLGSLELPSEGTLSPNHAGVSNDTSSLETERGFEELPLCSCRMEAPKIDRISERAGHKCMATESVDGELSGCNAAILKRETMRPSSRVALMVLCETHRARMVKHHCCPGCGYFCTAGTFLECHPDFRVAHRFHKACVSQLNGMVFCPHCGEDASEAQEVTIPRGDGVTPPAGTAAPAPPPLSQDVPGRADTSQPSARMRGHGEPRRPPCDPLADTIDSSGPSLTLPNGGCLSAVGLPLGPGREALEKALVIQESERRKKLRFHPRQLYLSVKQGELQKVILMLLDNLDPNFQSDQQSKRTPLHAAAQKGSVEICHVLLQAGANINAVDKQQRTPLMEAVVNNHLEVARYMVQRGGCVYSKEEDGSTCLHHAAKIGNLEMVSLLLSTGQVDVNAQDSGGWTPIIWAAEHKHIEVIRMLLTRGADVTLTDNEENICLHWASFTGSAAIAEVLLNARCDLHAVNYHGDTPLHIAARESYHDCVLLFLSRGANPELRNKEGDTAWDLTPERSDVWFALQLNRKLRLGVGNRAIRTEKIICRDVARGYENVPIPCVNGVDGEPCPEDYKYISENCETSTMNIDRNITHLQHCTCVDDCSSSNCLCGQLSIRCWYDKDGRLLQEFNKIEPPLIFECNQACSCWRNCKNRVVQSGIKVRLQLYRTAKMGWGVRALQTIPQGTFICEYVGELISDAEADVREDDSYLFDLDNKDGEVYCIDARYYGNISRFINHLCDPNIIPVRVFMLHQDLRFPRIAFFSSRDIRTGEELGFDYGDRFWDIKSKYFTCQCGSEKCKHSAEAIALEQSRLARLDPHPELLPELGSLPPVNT
- Protocol Text: MDA-MB-231 H3K9me2 in-cell Western assay (EHMT2 ICW)
- Format: cell-based
- Condition Info: H3K9me2 in-cell Western, MDA-MB-231 cells; read-out: EHMT2 ICW (IC50 μM)
For each entry below, report its IC50 value.

// IC50 value for "CNc1cc(C2CCCC2)nc(Nc2ccc(OC)c(OCCCN3CCCC3)c2)n1" : 1 to 10 µM

// IC50 value for CNc1cc(C)nc(Nc2ccc(OC)c(OCC3CN(C(C)C)C3)c2)n1 [Compound 559] : 0.1 to 1 µM

// IC50 value for "CNc1cc(C)nc(Nc2ccc(OC)c(OCCCCN(C)C)c2)n1" : 1 to 10 µM

// IC50 value for CNc1cc(C)nc(Nc2ccc(OC)c(OCC3CN(C(C)C)C3)c2)n1 [Compound 575] : 1 to 10 µM

// IC50 value for "COc1cc(Nc2nc(C)cc3[nH]ncc23)ncc1OCCCN1CCCC1" : 1 to 10 µM
